# Test system: UACC-62 melanoma
# PROTOCOL: NCI tumour cell line growth inhibition, 48 h
The following compounds are shown together with reported TGI values.

{"COMPOUND": "O=C(O)CSc1ncccc1[N+](=O)[O-]", "TGI": "> 100 µM"}
{"COMPOUND": "CCOC(=O)COS(=O)(=O)C(F)(F)F", "TGI": "> 100 µM"}
{"COMPOUND": "CCOc1ccccc1NC(=O)CCc1nc(=S)[nH][nH]1", "TGI": "> 100 µM"}

stdin: Given Fc1cccc(Cl)c1/C=N\N=C1c2ccccc2-c2ccccc21 , state its recorded TGI.
stdout: > 100 µM
